Data provenance is PubChem BioAssay (NCI).

- Tested on: SF-539 CNS
- protocolSummary: NCI-60 one-dose screen, 48 h (100 = growth as untreated, 0 = no growth, -100 = all killed)
- conditionSummary: 10 µM
- Experimental: Cells are grown in 96 well plates and exposed to the test compound for 48 hours. Compounds are tested at a single concentration, which is 10^-5 M for most compounds. The reported endpoint is percent growth (GI% or GIPRCNT), where numbers from 0 - 100% represent growth inhibition, and numbers from -100% - 0 represent cell death. For example, a value of 40 represents 60% growth inhibition. A value of 0 means no net growth occurred over the course of the experiment. […]
Compounds without any hit were thinned out: in the full panel of roughly 83,000, 20% have a hit. Calls of active or inactive are those of the source. How the source made its calls: active means growth percent below 10; inactive means the rest.
Consider the following molecules; for each one, report its growth.

Specify measured growth for CN1CC[C@@H](c2c(O)cc(O)c3c(=O)cc(-c4ccccc4Cl)oc23)[C@@H](O)C1 .
-31.3% (active)

Determine its reported growth: CCCCCCCCCCCCCC[n+]1ccc(C(N)=O)cc1
-3.7% (active)

Return the recorded growth value; entry: CC(C)=CCc1cc(O)cc2c1OC(C=C(C)C)C1=C2C(=O)C2=C(NCCS2(=O)=O)C1=O (stereo not given)
-50.5% (active)

Please give measured growth of the following entry: CCOC(=O)CCC(NC(=O)c1ccc(N)cc1)C(=O)OCC (stereo not given)
97.6% (inactive)

Provide growth value for the following molecule: O=C(NN1C(=O)CSC1c1ccc(Cl)cc1)c1cccnc1 (stereo not given)
105% (inactive)

Specify growth for COc1ccc(-c2nc3sc(-c4ccc(OC)cc4)c(-c4ccc(OC)cc4)n3c2/C=C/c2ccc(C(C)C)cc2)cc1 and stop.
94.3% (inactive)

Give growth for the following molecule: COc1ccc(/C=C/C(=O)Nc2ccc(-c3nc4ccc(F)cc4s3)cc2)cc1
111% (inactive)

In one line, give reported growth of the entry COc1cc(-c2nnc(-c3c(-c4ccc(F)cc4)nc4ccccn34)o2)cc(OC)c1OC .
26.4% (inactive)

Using known records, supply growth for COC(=O)C(=C\c1ccc2c(c1)OCO2)/C(=C/c1ccc2c(c1)OCO2)C(=O)OC
96.1% (inactive)

For the molecule CCOC(=O)c1ccc(NC(=O)Nc2ncc(Cl)cc2Cl)cc1 , give its reported growth.
96.2% (inactive)

Dear colleague, please send me the reported growth for CN(C)CCN1C(=O)c2cccc3c(-c4ccc5ncn(C6CCCCC6)c5c4)ccc(c23)C1=O when you can.
31.9% (inactive)

For the molecule COc1ccc(-c2nc3ncccn3c2-c2nnc(-c3ccc(F)cc3)o2)cc1 , report growth.
94.5% (inactive)

# return recorded growth for entry O=C1CC[C@@H]2CCCC[C@@H]2C1
102% (inactive)

Look up and report measured growth for this entry: Nc1c(C(=O)Nc2cccc(F)c2)sc2nc3c(cc12)C(=O)CCC3
-17.4% (active)

Please give the documented growth of CCCCCCN1CCN(Cc2ccc(N(CC)CC)cc2)C(=O)C1=O
-1.86% (active)

Supply recorded growth for O=C(Nc1ccc(Cl)cc1)N1NC(c2ccc(Cl)cc2)C=C1c1ccccc1 (stereo not given) here.
112% (inactive)

Complete the entry with growth for COc1ccc(NC(=O)Cc2nc3nc4sc(C)c(C)c4c(=O)n3[nH]2)cc1
103% (inactive)

Let me know recorded growth for COc1ccc(-c2csc(NC(=O)CSc3nc(C)c(-c4ccccc4)n3Nc3ccccc3)n2)cc1 , thanks.
72.7% (inactive)

State its growth: Cc1cc(Cc2cc(C)c(O)c(C)c2)cc(C)c1O
37.2% (inactive)

In one line, give reported growth of the entry CN(C)CC(O)c1ccc2cc(Br)c3ccccc3c2c1 (stereo not given) .
65.9% (inactive)

Fill in growth for record COc1cc([C@@H]2c3cc4c(cc3C(Br)[C@H]3COC(=O)[C@H]23)OCO4)cc(OC)c1OC (stereo not given in full)
-44.5% (active)

Please report the measured growth for C#Cc1ccc(-n2c(/C=C/c3ccc(C(F)(F)F)cc3)nc3ncccc3c2=O)cc1
45.2% (inactive)

Complete the entry with growth for COc1ccc2c(c1)O/C(=C\c1ccc([N+](=O)[O-])s1)C2=O
34.5% (inactive)

// Input: O=[N+]([O-])c1cccc(N=Cc2ccc3c(c2)OCO3)c1 . Output its growth only.
115% (inactive)

Return growth for the following molecule: O=C(Nc1ccc(OS(=O)(=O)c2ccccc2)cc1)C12CC3CC(CC(C3)C1)C2
19.7% (inactive)

Tell me measured growth for CN(Cc1ccccc1)Cc1ccc([N+](=O)[O-])cc1I please.
100% (inactive)

Give growth for the following molecule: CCN(CC)CCNC(=O)c1ccc(NC(C)=O)cc1
107% (inactive)

Using the record for Cc1ccc(Nc2nnc(-c3cc(-c4ccncc4)n(-c4ccccc4)n3)s2)cc1 , state its measured growth.
91.6% (inactive)

Give a short answer stating reported growth for COc1ccc(-c2cc(/C=C3\C(=O)Nc4ccc(Cl)cc43)[nH]n2)cc1OC .
82.2% (inactive)

Give the measured growth for O=C(N/N=C/c1ccccc1)C(Oc1ccccc1)c1ccccc1 (stereo not given)
93.7% (inactive)
